tested on: PC12 cells; assay: Neuroprotection against H2O2-induced cell death in PC12 cells (MTT); assay type: cell-based; conditions: 10 μM compound, H2O2 (150 μM)-induced injury, mean ± SEM
Measured attribute: PC12 cell viability (% of control)

*Q* Any idea what its PC12 cell viability (% of control) is? The compound is `O=c1oc2ccccc2cc1-c1ccc(OCCCC[n+]2ccccc2)cc1.[Br-]`
*A* 45.8 ± 0.3 % of control

*Q* # lookup: PC12 cell viability (% of control) of `O=c1oc2ccc([N+](=O)[O-])cc2cc1-c1ccc(OCCC[n+]2ccccc2)cc1.[Br-]`
*A* 45.0 ± 0.8 % of control

*Q* Could you share which PC12 cell viability (% of control) value was measured for `O=c1oc2ccc([N+](=O)[O-])cc2cc1-c1ccc(OCCCC[n+]2ccccc2)cc1.[Br-]` ?
*A* 37.8 ± 1.0 % of control

* * *

molecular target: BuChE (equine serum) (Equus caballus, UniProt P81908); experiment: biochemical; details: equine serum BuChE; mean ± SEM of three experiments
Sequence (P81908 whole entry): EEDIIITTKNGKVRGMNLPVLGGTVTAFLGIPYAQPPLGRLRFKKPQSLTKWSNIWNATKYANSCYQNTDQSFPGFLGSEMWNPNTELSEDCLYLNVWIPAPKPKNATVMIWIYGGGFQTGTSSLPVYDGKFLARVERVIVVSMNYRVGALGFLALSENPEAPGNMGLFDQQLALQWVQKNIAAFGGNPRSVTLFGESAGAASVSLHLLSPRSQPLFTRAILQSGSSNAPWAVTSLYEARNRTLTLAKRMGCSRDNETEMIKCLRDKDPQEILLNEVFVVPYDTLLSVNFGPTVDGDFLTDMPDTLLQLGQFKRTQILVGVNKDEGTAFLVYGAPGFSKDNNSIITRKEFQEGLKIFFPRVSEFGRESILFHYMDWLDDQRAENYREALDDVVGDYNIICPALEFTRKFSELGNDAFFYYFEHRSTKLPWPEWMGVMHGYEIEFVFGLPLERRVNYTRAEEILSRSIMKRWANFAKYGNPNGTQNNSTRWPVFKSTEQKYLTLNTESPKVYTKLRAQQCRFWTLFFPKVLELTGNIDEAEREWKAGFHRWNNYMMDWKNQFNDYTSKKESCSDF
Could you please report measured pIC50 for the items listed next?
# pIC50: negative log10 of molar concentration; output just the value

*Q* Bench note: what pIC50 did COc1ccc2cc(-c3ccc(OCCCC[n+]4ccccc4)cc3)c(=O)oc2c1 [Compound 3i] show?
*A* 7.34

*Q* // returns reported pIC50 for input O=c1oc2ccc(Br)cc2cc1-c1ccc(OCCC[n+]2ccccc2)cc1 [Compound 3e]
*A* 7.48

*Q* Query: pIC50; subject: COc1ccc2cc(-c3ccc(OCCC[n+]4ccccc4)cc3)c(=O)oc2c1 [Compound 3c]
*A* 7.24

*Q* So what does the record say about pIC50 for O=c1oc2ccc([N+](=O)[O-])cc2cc1-c1ccc(OCCCC[n+]2ccccc2)cc1.[Br-] [Compound 3l] ?
*A* 7.23

* * *

Biological target: BuChE (equine serum) (Equus caballus)
Experiment: biochemical
Conditions: equine serum BuChE; mean ± SEM of three experiments
Method: AChE, BuChE, 5,5'-dithiobis (2-nitrobenzoic acid) (DTNB), acetyl- and butyrylthiocholine iodides were purchased from Sigma-Aldrich. Five different concentrations of the corresponding compounds in ethanol-DMSO (9:1) were prepared. […] After 3 min of incubation, the substrate solution (acetylthiocholine iodide or butyrylthiocholine iodide, 0.05 M) was added and then incubated for at least 1 min at 25°C. […]
For each record, write down the corresponding IC50.
Form entry: value (nM) — number only.

*Q* Checklist item: IC50 tested on BuChE (equine serum) (Equus caballus), entry `O=c1oc2ccccc2cc1-c1ccc(OCCCCC[n+]2ccccc2)cc1` , value?
*A* 86

*Q* Fill in the recorded IC50 for this molecule, with BuChE (equine serum) (Equus caballus) as test system: `CN(C)c1cc[n+](CCCOc2ccc(-c3cc4cc([N+](=O)[O-])ccc4oc3=O)cc2)cc1.[Br-]`
*A* 9

*Q* GET /values?readout=IC50&system=BuChE (equine serum) (Equus caballus)&item= `O=c1oc2ccccc2cc1-c1ccc(OCCCC[n+]2ccccc2)cc1.[Br-]`
*A* 91

*Q* Notebook entry, BuChE (equine serum) (Equus caballus) assay: IC50 of `COc1cccc2cc(-c3ccc(OCCCCC[n+]4ccccc4)cc3)c(=O)oc12` = ?
*A* 123

*Q* State its IC50 on BuChE (equine serum) (Equus caballus): `O=c1oc2ccc(Br)cc2cc1-c1ccc(OCCCCC[n+]2ccccc2)cc1`
*A* 49

*Q* // fetch BuChE (equine serum) (Equus caballus) IC50 for `O=c1oc2ccc(Br)cc2cc1-c1ccc(OCCCC[n+]2ccccc2)cc1`
*A* 92

*Q* Lab note: need IC50 for `COc1cccc2cc(-c3ccc(OCCCC[n+]4ccccc4)cc3)c(=O)oc12` on BuChE (equine serum) (Equus caballus), anyone have it?
*A* 97

*Q* What is its IC50 for BuChE (equine serum) (Equus caballus)? Entry: `COc1cccc2cc(-c3ccc(OCCC[n+]4ccccc4)cc3)c(=O)oc12`
*A* 79

*Q* Item: `COc1ccc2oc(=O)c(-c3ccc(OCCC[n+]4ccccc4)cc3)cc2c1.[Br-]` Test system: BuChE (equine serum) (Equus caballus) Read-out: IC50 Value: ?
*A* 68

*Q* Hi! What's the reported IC50 for `CN(C)c1cc[n+](CCCOc2ccc(-c3cc4ccccc4oc3=O)cc2)cc1` on BuChE (equine serum) (Equus caballus)?
*A* 34

*Q* Which measured IC50 belongs to `O=c1oc2ccccc2cc1-c1ccc(OCCC[n+]2ccccc2)cc1.[Br-]` , tested on BuChE (equine serum) (Equus caballus)?
*A* 84

*Q* Param readout= IC50; system= BuChE (equine serum) (Equus caballus); entry= `O=c1oc2ccc([N+](=O)[O-])cc2cc1-c1ccc(OCCC[n+]2ccccc2)cc1.[Br-]` ; returns value.
*A* 24

*Q* BuChE (equine serum) (Equus caballus) / IC50 / `COc1ccc2oc(=O)c(-c3ccc(OCCCC[n+]4ccccc4)cc3)cc2c1` : value?
*A* 106

* * *

Give measured pIC50 for each item. Keep answers brief.
Note on pIC50: it is the negative log10 of concentration, concentration in mol/L.

*Q* API: value(readout=pIC50, system=AChE (electric eel) (Electrophorus electricus)) for record O=c1oc2ccc(Br)cc2cc1-c1ccc(OCCC[n+]2ccccc2)cc1 [Compound 3e]
*A* 7.82

*Q* Form field: pIC50 recorded for O=c1oc2ccccc2cc1-c1ccc(OCCCC[n+]2ccccc2)cc1.[Br-] [Compound 3g] with AChE (electric eel) (Electrophorus electricus) (enter value)
*A* 8.15

*Q* What is its pIC50 for AChE (electric eel) (Electrophorus electricus)? Entry: COc1cccc2cc(-c3ccc(OCCCCC[n+]4ccccc4)cc3)c(=O)oc12 [Compound 3n]
*A* 7.82

*Q* State its pIC50 on AChE (electric eel) (Electrophorus electricus): COc1ccc2cc(-c3ccc(OCCC[n+]4ccccc4)cc3)c(=O)oc2c1 [Compound 3c]
Sequence (O42275 24-633): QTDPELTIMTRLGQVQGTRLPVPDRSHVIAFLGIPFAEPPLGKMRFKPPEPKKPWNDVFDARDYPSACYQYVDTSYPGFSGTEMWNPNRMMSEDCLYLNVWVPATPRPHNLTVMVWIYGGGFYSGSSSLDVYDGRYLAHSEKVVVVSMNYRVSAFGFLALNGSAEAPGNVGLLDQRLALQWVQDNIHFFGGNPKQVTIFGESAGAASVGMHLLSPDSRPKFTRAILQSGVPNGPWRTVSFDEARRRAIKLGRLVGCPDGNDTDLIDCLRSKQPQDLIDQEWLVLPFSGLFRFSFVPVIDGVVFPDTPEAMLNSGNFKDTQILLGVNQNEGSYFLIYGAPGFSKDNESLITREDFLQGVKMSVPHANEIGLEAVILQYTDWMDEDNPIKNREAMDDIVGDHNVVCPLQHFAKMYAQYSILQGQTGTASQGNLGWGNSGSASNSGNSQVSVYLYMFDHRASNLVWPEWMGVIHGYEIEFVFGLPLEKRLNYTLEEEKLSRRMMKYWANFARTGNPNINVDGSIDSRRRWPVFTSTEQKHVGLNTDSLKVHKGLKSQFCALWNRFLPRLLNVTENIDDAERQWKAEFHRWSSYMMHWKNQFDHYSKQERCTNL
*A* 8.15

*Q* Provide value of pIC50 for this record tested with AChE (electric eel) (Electrophorus electricus): CN(C)c1cc[n+](CCCOc2ccc(-c3cc4cc([N+](=O)[O-])ccc4oc3=O)cc2)cc1.[Br-] [Compound 3t]
*A* 7.85
